The entries below come with measured Kd values attached.
molecular target: mouse Δ1–24-L-PGDS (lipocalin type prostaglandin D synthase) (Mus musculus, UniProt O09114, H111A); assay: surface plasmon resonance
Sequence (O09114 25-189 H111A): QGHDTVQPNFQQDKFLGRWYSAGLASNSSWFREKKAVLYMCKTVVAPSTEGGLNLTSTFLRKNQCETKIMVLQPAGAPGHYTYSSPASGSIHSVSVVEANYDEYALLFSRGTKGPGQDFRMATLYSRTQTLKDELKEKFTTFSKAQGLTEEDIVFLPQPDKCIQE

Please give the measured Kd for this compound: "CCCCC[C@H](O)/C=C/[C@@H]1[C@@H](C/C=C\CCCC(=O)O)[C@H]2CO[C@@H]1C2"
20.3 µM

Consider now this further compound.
Please give the measured Kd for this compound: "CCCCC[C@H](O)/C=C/[C@H]1[C@@H]2CO[C@@H](C2)[C@@H]1C/C=C\CCCC(=O)O"
20.6 µM

====

biological target: mouse Δ1–24-L-PGDS (lipocalin type prostaglandin D synthase) (Mus musculus, UniProt O09114, S81A); experiment: surface plasmon resonance
reportedEndpoint: pKd
FYI, pKd means -log10 of a concentration in mol per litre.

Please give the measured pKd for this compound: "CCCCC[C@H](O)/C=C/[C@@H]1[C@@H](C/C=C\CCCC(=O)O)[C@H]2CO[C@@H]1C2"
4.77

Consider now this further compound.
Please give the measured pKd for this compound: "CCCCC[C@H](O)/C=C/[C@H]1[C@@H]2CO[C@@H](C2)[C@@H]1C/C=C\CCCC(=O)O"
4.84
